experiment: NOD1 signaling inhibitors, primary screen, cell-based, luminescence, uHTS (AID 1578); settings: NOD1-driven NF-kB luciferase reporter cells, at 4 µM, active compounds read high;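 further: HEK-293T reporter cells stimulated with the NOD1 agonist gamma-tri-DAP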
About 3,000 (1%) of roughly 290,000 compounds were called active. This excerpt belongs to a sample that is enriched for actives.
Hi there, I'd appreciate the recorded inhibition for every entry that follows.
Reply numerically in %, unit not repeated.

# input Query (compound): "N#Cc1c(-c2ccccc2)nc(SCc2cccc(Cl)c2)[nH]c1=O" ; field requested: inhibition
# output 18.9

# input Then what about the compound "CCOC(=O)Cc1nnc(NC(=O)CSc2nnc3c(n2)[nH]c2ccccc23)s1" ?
# output 19

# input Next compound: "CSc1ccc(S(=O)(=O)N2CCC(C(=O)NCCN3CCOCC3)CC2)cc1"
# output -17.3

# input Moving on to the next compound: "COc1cccc(CNC(=O)CN(C)S(=O)(=O)c2cccc3cccnc23)c1"
# output -2.3

# input Entry "N#Cc1c(-c2ccccc2)nc(SCc2ccc(Cl)cc2)[nH]c1=O" please
# output -2.4

# input Follow-up entry: "CN(CCCCCCCCC(=O)/C=N/O)Cc1ccccc1"
# output -3.1

# input Now consider "N#Cc1c(N)nc(SCc2ccncc2)c(C#N)c1-c1cccs1" .
# output 61.6

# input What about "O=c1nc(SCc2cccc(C(F)(F)F)c2)nc2ccccn12" ?
# output -17.7

# input Also check "N#Cc1c(Cl)nc(SCc2ccccc2)nc1-c1ccccc1"
# output 32.4

# input Same lookup for "Cc1ccc(N2CCN(C(=O)c3cccs3)CC2)cc1C" , please.
# output 1.8

# input Can you handle "CCCS(=O)(=O)N1CCC(C(=O)c2cccc(C(F)(F)F)c2)CC1" next?
# output -5.7
